These entries and their values trace back to the supplement of paper PMC8617591.

- Test system: Mycobacterium tuberculosis Erdman (autoluminescent)
- test-details: GRinf, maximum normalised growth rate inhibition (unitless (-1 to 1)); higher = less effect (negative = killing)
- experimental-conditions: in vitro model: standard 7H9 glycerol; time point: constant = terminal
readout-name: GRinf

>>> result("COc1c(N2C[C@@H]3CCCN[C@@H]3C2)c(F)cc2c(=O)c(C(=O)O)cn(C3CC3)c12 [moxifloxacin] + CO[C@H]1/C=C/O[C@@]2(C)Oc3c(C)c(O)c4c(O)c(c(/C=N/N5CCN(C6CCCC6)CC5)c(O)c4c3C2=O)NC(=O)/C(C)=C\\C=C\\[C@H](C)[C@H](O)[C@@H](C)[C@@H](O)[C@@H](C)[C@H](OC(C)=O)[C@@H]1C [rifapentine]")
0.0707
>>> result("NNC(=O)c1ccncc1 [isoniazid] + COc1c(N2C[C@@H]3CCCN[C@@H]3C2)c(F)cc2c(=O)c(C(=O)O)cn(C3CC3)c12 [moxifloxacin]")
-0.218
>>> result("CC(C)/N=c1\\cc2n(-c3ccc(Cl)cc3)c3ccccc3nc-2cc1Nc1ccc(Cl)cc1 [clofazimine] + NNC(=O)c1ccncc1 [isoniazid]")
-0.146
>>> result("CC(C)/N=c1\\cc2n(-c3ccc(Cl)cc3)c3ccccc3nc-2cc1Nc1ccc(Cl)cc1 [clofazimine] + CO[C@H]1/C=C/O[C@@]2(C)Oc3c(C)c(O)c4c(O)c(c(/C=N/N5CCN(C6CCCC6)CC5)c(O)c4c3C2=O)NC(=O)/C(C)=C\\C=C\\[C@H](C)[C@H](O)[C@@H](C)[C@@H](O)[C@@H](C)[C@H](OC(C)=O)[C@@H]1C [rifapentine]")
-0.11
>>> result("COc1nc2ccc(Br)cc2cc1[C@@H](c1ccccc1)[C@@](O)(CCN(C)C)c1cccc2ccccc12 [bedaquiline] + CO[C@H]1/C=C/O[C@@]2(C)Oc3c(C)c(O)c4c(O)c(c(/C=N/N5CCN(C)CC5)c(O)c4c3C2=O)NC(=O)/C(C)=C\\C=C\\[C@H](C)[C@H](O)[C@@H](C)[C@@H](O)[C@@H](C)[C@H](OC(C)=O)[C@@H]1C [rifampicin]")
-0.0375

* * *

Einf by entry:
- Tested on: Mycobacterium tuberculosis Erdman (autoluminescent)
- test-details: Einf, fitted maximum growth inhibition of three-drug combination (fraction); higher = stronger maximal inhibition
- experimental-conditions: in vitro model: acidic pH 5.7; time point: terminal (~4-5 doublings, model-specific)
readout-name: Einf

>>> measured_number("CC(=O)NC[C@H]1CN(c2ccc(N3CCOCC3)c(F)c2)C(=O)O1 [linezolid] + NC(=O)c1cnccn1 [pyrazinamide] + CO[C@H]1/C=C/O[C@@]2(C)Oc3c(C)c(O)c4c(O)c(c(/C=N/N5CCN(C6CCCC6)CC5)c(O)c4c3C2=O)NC(=O)/C(C)=C\\C=C\\[C@H](C)[C@H](O)[C@@H](C)[C@@H](O)[C@@H](C)[C@H](OC(C)=O)[C@@H]1C [rifapentine]")
0.992
>>> measured_number("CC(=O)NC[C@H]1CN(c2ccc(N3CCOCC3)c(F)c2)C(=O)O1 [linezolid] + COc1c(N2C[C@@H]3CCCN[C@@H]3C2)c(F)cc2c(=O)c(C(=O)O)cn(C3CC3)c12 [moxifloxacin] + CO[C@H]1/C=C/O[C@@]2(C)Oc3c(C)c(O)c4c(O)c(c(/C=N/N5CCN(C6CCCC6)CC5)c(O)c4c3C2=O)NC(=O)/C(C)=C\\C=C\\[C@H](C)[C@H](O)[C@@H](C)[C@@H](O)[C@@H](C)[C@H](OC(C)=O)[C@@H]1C [rifapentine]")
0.976
>>> measured_number("COc1nc2ccc(Br)cc2cc1[C@@H](c1ccccc1)[C@@](O)(CCN(C)C)c1cccc2ccccc12 [bedaquiline] + O=[N+]([O-])c1cn2c(n1)OC[C@@H](OCc1ccc(OC(F)(F)F)cc1)C2 [pretomanid] + NC(=O)c1cnccn1 [pyrazinamide]")
0.983
